Target: hNav1.7 (Homo sapiens (Human))
Assay: Tritiated compound binding to membranes from cells expressing hNav1.7 and the β1 subunit, competitive binding (LBA, Ex. 243A)
Conditions: 100 pM [3H]compound, 18 h, room temperature; read-out: Nav1.7 LBA (Ex. 243A) IC50
Sequence (Q15858 whole entry, looked up): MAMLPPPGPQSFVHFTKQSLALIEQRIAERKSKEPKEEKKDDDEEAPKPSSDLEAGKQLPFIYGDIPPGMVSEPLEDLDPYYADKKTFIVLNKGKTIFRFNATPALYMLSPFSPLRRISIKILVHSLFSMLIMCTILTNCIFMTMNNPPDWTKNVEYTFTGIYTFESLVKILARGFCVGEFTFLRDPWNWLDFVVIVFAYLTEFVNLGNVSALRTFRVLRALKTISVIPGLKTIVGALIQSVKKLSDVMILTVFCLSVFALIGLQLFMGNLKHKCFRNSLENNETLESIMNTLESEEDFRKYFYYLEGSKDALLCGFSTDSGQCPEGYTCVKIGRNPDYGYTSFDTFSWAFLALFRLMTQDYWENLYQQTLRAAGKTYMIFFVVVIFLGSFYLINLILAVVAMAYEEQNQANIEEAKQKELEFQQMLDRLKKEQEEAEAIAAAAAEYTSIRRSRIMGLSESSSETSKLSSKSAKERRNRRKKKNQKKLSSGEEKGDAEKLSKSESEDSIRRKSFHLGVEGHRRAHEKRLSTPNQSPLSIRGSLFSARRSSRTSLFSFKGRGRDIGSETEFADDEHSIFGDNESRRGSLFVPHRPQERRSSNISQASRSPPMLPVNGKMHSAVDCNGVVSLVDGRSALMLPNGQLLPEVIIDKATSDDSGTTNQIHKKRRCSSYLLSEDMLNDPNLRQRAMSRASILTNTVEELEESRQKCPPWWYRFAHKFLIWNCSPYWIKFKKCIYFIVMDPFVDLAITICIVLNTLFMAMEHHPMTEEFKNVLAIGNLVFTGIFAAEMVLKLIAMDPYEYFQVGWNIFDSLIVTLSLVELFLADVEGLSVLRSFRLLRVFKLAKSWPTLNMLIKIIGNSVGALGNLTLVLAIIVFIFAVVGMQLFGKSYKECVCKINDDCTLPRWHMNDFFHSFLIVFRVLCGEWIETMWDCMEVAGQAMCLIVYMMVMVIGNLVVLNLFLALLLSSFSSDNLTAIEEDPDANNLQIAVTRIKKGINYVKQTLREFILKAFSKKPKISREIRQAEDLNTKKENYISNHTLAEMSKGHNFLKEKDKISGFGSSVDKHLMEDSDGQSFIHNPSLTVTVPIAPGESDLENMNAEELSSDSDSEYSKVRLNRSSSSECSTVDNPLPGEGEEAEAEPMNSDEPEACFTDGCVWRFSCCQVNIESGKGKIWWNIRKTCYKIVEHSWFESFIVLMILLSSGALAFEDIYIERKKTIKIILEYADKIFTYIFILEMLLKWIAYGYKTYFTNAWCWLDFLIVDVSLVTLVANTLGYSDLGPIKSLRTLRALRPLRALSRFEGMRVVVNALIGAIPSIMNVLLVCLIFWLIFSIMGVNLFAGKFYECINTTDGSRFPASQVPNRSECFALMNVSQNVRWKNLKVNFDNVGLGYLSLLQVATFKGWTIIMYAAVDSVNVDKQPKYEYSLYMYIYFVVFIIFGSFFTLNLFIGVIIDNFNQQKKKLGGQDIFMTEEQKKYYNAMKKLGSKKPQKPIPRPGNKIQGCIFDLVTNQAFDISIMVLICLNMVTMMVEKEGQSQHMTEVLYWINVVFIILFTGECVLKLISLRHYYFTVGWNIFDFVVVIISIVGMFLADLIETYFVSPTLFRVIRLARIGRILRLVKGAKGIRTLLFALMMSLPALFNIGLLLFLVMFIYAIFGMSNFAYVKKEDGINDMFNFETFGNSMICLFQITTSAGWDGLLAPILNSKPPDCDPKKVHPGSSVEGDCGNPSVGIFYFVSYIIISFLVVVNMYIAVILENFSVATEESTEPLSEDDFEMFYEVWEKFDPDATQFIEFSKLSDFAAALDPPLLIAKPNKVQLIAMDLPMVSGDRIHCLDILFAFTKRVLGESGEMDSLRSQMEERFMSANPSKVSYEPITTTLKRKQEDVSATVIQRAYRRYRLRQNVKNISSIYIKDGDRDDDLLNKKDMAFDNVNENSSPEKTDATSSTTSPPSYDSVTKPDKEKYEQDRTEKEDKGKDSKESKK
Sequence (Q07699 whole entry partner, looked up): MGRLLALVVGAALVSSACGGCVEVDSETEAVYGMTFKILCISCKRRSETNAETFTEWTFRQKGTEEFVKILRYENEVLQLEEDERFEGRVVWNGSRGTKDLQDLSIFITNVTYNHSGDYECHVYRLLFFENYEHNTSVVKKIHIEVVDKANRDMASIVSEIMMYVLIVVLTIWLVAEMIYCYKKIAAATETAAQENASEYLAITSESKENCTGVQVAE
readout: pIC50
Scale for pIC50: -log10 of concentration given in mol/L; no unit attached.

## Input Any idea what pIC50 was measured for CCN[C@H]1CCCC[C@@H]1Oc1cc(F)c(S(=O)(=O)Nc2nccs2)cc1Cl ?
## Output 7.57

## Input Any idea what pIC50 was measured for O=S(=O)(Nc1nccs1)c1cc(Cl)c(N[C@H]2CCCC[C@@H]2N2CCCC2)cc1F ?
## Output 8.01

## Input Any idea what pIC50 was measured for CN(C)[C@@H]1CC[C@H](c2cccc(C(F)(F)F)c2)C[C@H]1Nc1cc(F)c(S(=O)(=O)Nc2nccs2)cc1Cl ?
## Output 7.49

## Input Any idea what pIC50 was measured for CN(C1CNC1)[C@H]1CCCC[C@@H]1Nc1cc(F)c(S(=O)(=O)Nc2ccncn2)cc1Cl ?
## Output 7.52

## Input Any idea what pIC50 was measured for CCCN[C@H]1CCCC[C@@H]1Nc1cc(F)c(S(=O)(=O)Nc2nccs2)cc1Cl ?
## Output 7.45

## Input Any idea what pIC50 was measured for CN(C[C@H](O)C(F)(F)F)[C@H]1CCCC[C@@H]1Nc1cc(F)c(S(=O)(=O)Nc2nccs2)cc1Cl ?
## Output 7.50

## Input Any idea what pIC50 was measured for CC(C)N(C)[C@H]1CCCC[C@@H]1Nc1cc(F)c(S(=O)(=O)Nc2nccs2)cc1Cl ?
## Output 7.08

* * *

Field: pIC50. Provide a value for each of the molecules that follow.
Target: hNav1.7 (Homo sapiens (Human))
Assay: Patch voltage clamp electrophysiology assay (EP), Syncropatch 384PE, CHO cells expressing Nav1.7
Assay type: cell-based
Conditions: holding potential -50 mV; […] compound incubation; read-out: EP_SP hNav1.7 (Ex. 243B) IC50
Sequence (Q15858 other isoform, or with tags, fused parts or gaps): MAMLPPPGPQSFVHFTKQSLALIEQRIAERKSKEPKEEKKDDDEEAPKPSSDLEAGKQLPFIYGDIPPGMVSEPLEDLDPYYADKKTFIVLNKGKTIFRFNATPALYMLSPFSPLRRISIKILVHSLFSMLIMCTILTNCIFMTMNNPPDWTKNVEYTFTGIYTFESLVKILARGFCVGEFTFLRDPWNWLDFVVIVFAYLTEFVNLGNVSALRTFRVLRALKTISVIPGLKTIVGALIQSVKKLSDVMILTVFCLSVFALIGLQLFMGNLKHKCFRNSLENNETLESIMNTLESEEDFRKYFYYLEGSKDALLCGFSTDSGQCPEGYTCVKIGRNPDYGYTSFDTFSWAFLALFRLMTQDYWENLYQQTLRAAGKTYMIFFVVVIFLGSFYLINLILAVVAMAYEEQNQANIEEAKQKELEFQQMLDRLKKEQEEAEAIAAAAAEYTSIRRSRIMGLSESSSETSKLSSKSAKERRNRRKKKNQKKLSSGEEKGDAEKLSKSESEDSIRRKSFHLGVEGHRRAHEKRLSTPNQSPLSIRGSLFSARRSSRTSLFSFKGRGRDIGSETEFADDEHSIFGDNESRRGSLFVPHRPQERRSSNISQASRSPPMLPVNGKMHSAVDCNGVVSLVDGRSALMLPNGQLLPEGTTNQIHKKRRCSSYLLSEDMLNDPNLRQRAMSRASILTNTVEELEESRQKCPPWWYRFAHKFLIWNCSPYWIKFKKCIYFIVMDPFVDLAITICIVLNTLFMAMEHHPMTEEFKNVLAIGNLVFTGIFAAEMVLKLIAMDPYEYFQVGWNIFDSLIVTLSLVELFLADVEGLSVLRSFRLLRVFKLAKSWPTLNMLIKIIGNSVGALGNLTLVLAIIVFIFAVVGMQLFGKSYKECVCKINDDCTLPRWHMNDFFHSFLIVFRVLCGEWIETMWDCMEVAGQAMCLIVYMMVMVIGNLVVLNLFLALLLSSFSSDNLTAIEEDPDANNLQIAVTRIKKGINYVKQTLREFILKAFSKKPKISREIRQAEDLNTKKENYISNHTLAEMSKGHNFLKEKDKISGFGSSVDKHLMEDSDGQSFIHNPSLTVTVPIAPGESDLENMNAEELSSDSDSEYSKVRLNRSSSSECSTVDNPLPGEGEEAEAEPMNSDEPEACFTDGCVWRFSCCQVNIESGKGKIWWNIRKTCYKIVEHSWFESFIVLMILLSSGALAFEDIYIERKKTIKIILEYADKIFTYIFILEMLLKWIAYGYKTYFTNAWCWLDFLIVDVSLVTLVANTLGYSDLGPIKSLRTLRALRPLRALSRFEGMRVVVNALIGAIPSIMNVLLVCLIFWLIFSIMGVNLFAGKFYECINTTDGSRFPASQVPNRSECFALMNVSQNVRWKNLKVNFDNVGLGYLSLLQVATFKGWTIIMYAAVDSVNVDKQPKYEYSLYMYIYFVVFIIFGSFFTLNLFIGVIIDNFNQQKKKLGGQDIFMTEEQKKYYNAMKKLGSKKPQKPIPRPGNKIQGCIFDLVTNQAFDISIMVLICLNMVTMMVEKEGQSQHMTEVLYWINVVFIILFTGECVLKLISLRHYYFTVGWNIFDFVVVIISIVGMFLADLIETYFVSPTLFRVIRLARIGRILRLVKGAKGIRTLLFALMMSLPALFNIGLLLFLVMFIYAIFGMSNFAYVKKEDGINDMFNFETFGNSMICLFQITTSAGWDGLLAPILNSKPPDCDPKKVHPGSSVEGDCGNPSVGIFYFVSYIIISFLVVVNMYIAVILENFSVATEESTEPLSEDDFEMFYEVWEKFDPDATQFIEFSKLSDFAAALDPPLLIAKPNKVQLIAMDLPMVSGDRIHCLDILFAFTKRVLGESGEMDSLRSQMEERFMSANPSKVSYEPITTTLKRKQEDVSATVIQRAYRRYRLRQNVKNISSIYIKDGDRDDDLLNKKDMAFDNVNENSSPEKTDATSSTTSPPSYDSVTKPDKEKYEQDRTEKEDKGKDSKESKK
Where a name gives a salt, the structure may show the parent alone.
Scale for pIC50: -log10 of concentration given in mol/L; no unit attached.

## Input Any idea what pIC50 was measured for CN(CC(C)(C)O)[C@H]1CCCC[C@@H]1Nc1cc(F)c(S(=O)(=O)Nc2nccs2)cc1Cl [Example 116, formate] ?
## Output 7.74

## Input Any idea what pIC50 was measured for CN(CCC#N)[C@H]1CCCC[C@@H]1Nc1cc(F)c(S(=O)(=O)Nc2nccs2)cc1Cl [Example 125] ?
## Output 8.12

## Input Any idea what pIC50 was measured for CN(CCO)[C@H]1C[C@@H](C(F)(F)F)CC[C@@H]1Nc1cc(F)c(S(=O)(=O)Nc2cccc(F)n2)cc1Cl [Example 158, formate] ?
## Output 8.57

## Input Any idea what pIC50 was measured for O=S(=O)(Nc1nccs1)c1cc(Cl)c(N[C@H]2CCCC[C@@H]2N2CCC[C@H]2CO)cc1F [Example 134] ?
## Output 7.73

* * *

Field: IC50. Provide a value for each of the molecules that follow.
Target: hNav1.7 (Homo sapiens (Human))
Assay: Tritiated compound binding to membranes from cells expressing hNav1.7 and the β1 subunit, modified protocol (LBA, Ex. 243B)
Conditions: 300 pM [3H]compound, room temperature, read-out: Nav1.7 LBA (Ex. 243B) IC50
Counter-ions that a name gives are not always drawn.
Just the number in nM, nothing appended.

## Input Any idea what IC50 was measured for CN1CCN([C@H]2CCCC[C@@H]2Nc2cc(F)c(S(=O)(=O)Nc3nccs3)cc2Cl)CC1 ?
## Output 201

## Input Any idea what IC50 was measured for CN(CCCO)[C@H]1CCCC[C@@H]1Nc1cc(F)c(S(=O)(=O)Nc2cccc(F)n2)cc1Cl ?
## Output 205

## Input Any idea what IC50 was measured for O=S(=O)(Nc1nccs1)c1cc(Cl)c(N[C@H]2CCCC[C@@H]2N2CCC3(CC2)CC3)cc1F [Example 154, formate] ?
## Output 1200

## Input Any idea what IC50 was measured for CCCc1cccc([C@H]2CC[C@H](Nc3cc(F)c(S(=O)(=O)Nc4ccncn4)cc3Cl)[C@@H](N(C)C)C2)c1 ?
## Output 9.73

## Input Any idea what IC50 was measured for O=S(=O)(Nc1ccncn1)c1cc(Cl)c(N[C@H]2CCCC[C@@H]2N2CC3C(C2)C3(F)F)cc1F (stereo partly drawn) ?
## Output 277

## Input Any idea what IC50 was measured for O=S(=O)(Nc1ccncn1)c1cc(Cl)c(N[C@@H]2CCCC[C@H]2N2CC3C(C2)C3(F)F)cc1F (stereo partly drawn) ?
## Output 2000

## Input Any idea what IC50 was measured for CC1(O)CCN([C@H]2CCCC[C@@H]2Nc2cc(F)c(S(=O)(=O)Nc3nccs3)cc2Cl)CC1 [Example 150, formate] ?
## Output 1410

## Input Any idea what IC50 was measured for CN(C[C@H](O)C1CC1)[C@H]1CCCC[C@@H]1Nc1cc(F)c(S(=O)(=O)Nc2nccs2)cc1Cl ?
## Output 418

## Input Any idea what IC50 was measured for CN(C)CC(=O)N(C)[C@H]1CCCC[C@@H]1Nc1cc(F)c(S(=O)(=O)Nc2nccs2)cc1Cl ?
## Output 91.7

## Input Any idea what IC50 was measured for CN(C)[C@@H]1C[C@H]2C[C@H]2C[C@H]1Nc1cc(F)c(S(=O)(=O)Nc2nccs2)cc1Cl ?
## Output 1190

## Input Any idea what IC50 was measured for CN(C)[C@H]1CCCC[C@@H]1N1CCOc2cc(S(=O)(=O)Nc3nccs3)c(F)cc21 ?
## Output 306

## Input Any idea what IC50 was measured for N#C[C@@H]1CCCN([C@H]2CCCC[C@@H]2Nc2cc(F)c(S(=O)(=O)Nc3nccs3)cc2Cl)C1 ?
## Output 491

## Input Any idea what IC50 was measured for CN(C)[C@H]1CCC(c2cccc(C(F)(F)F)c2)C[C@@H]1Nc1cc(F)c(S(=O)(=O)Nc2ccncn2)cc1Cl (stereo in doubt) [Example 121] ?
## Output 1170

## Input Any idea what IC50 was measured for O=S(=O)(Nc1nccs1)c1cc(Cl)c(N[C@H]2CCCC[C@@H]2N2CCCC2CO)cc1F (stereo in doubt) ?
## Output 20.8

## Input Any idea what IC50 was measured for CN(C)[C@H]1CC2C(C[C@@H]1Nc1cc(F)c(S(=O)(=O)Nc3nccs3)cc1Cl)C2(F)F (stereo in doubt) [Example 209] ?
## Output 160

## Input Any idea what IC50 was measured for Cc1nc(NS(=O)(=O)c2cc(Cl)c(N[C@H]3CCCC[C@@H]3N(C)C)cc2F)sc1F [Example 211, formate] ?
## Output 1430

## Input Any idea what IC50 was measured for CN(C)[C@H]1CCCCC[C@@H]1Nc1cc(F)c(S(=O)(=O)Nc2nccs2)cc1Cl [Example 144, formate] ?
## Output 374

## Input Any idea what IC50 was measured for CN(C1CNC1)[C@H]1C[C@@H](C(F)(F)F)CC[C@@H]1Nc1cc(F)c(S(=O)(=O)Nc2cccc(F)n2)cc1Cl ?
## Output 2.92

## Input Any idea what IC50 was measured for CN(C)[C@H]1C[C@@H](c2cccc(C(F)(F)F)c2)CC[C@@H]1Nc1cc(F)c(S(=O)(=O)Nc2ccon2)cc1Cl ?
## Output 5.78

## Input Any idea what IC50 was measured for O=S(=O)(Nc1nccs1)c1cc(Cl)c(N[C@H]2CCCC[C@@H]2N2CCC[C@@H](CO)C2)cc1F [Example 169, formate] ?
## Output 7.56

## Input Any idea what IC50 was measured for CN(C)[C@H]1C[C@H](F)CC[C@@H]1Nc1cc(F)c(S(=O)(=O)Nc2nccs2)cc1Cl ?
## Output 911

## Input Any idea what IC50 was measured for CN(C)[C@H]1C[C@@H](c2cccc(C(F)(F)F)c2)CC[C@@H]1Nc1cc(F)c(S(=O)(=O)Nc2nccs2)cc1Cl [Example 129, formate] ?
## Output 0.255

## Input Any idea what IC50 was measured for CN(C)[C@H]1C[C@@H](c2ccc(C(F)(F)F)cc2)CC[C@@H]1Nc1cc(F)c(S(=O)(=O)Nc2ccncn2)cc1Cl ?
## Output 8.33

## Input Any idea what IC50 was measured for CN(CCO)[C@H]1C[C@@H](C(F)(F)F)CC[C@@H]1Nc1cc(F)c(S(=O)(=O)Nc2nccs2)cc1Cl ?
## Output 9.43

## Input Any idea what IC50 was measured for O=S(=O)(Nc1ccncn1)c1cc(Cl)c(N[C@@H]2CCCC[C@H]2N2CC3CC3C2)cc1F (stereo partly drawn) ?
## Output 2000

## Input Any idea what IC50 was measured for CN(C)[C@H]1C[C@@H](c2cccc(C(F)(F)F)c2)CC[C@@H]1Nc1cc(F)c(S(=O)(=O)Nc2ccncn2)cc1Br ?
## Output 0.69

## Input Any idea what IC50 was measured for CN(C)[C@H]1CN(c2cccc(C(F)(F)F)c2)CC[C@@H]1Nc1cc(F)c(S(=O)(=O)Nc2ccncn2)cc1Cl ?
## Output 9.82
